molecular target: UniProtKB P0DTD1; assay: biochemical; conditions: 3CL^pro FRET, class symbols
pIC50: −log10 of the molar value.
Quick reference: pIC50 of the listed items.

> print(dat)
                              smiles.record         value
1  Cc1cc(C)cc(Cn2c(=O)n(Cc3cnn[nH]3)c(=O)[nH]/c2=N\c2cc3cn(C)nc3cc2Cl)c1  6.00 to 6.30
2  Cn1cc2cc(/N=c3\[nH]c(=O)n(Cc4cnn[nH]4)c(=O)n3Cc3ccc(OC(F)(F)F)cc3)c(Cl)cc2n1        > 7.00
3  Cc1ccc(Cn2c(=O)n(Cc3cnn[nH]3)c(=O)[nH]/c2=N\c2cc3cn(C)nc3cc2Cl)cc1  6.00 to 6.30

Q. Give a short answer stating reported pIC50 for `Cn1cc2cc(/N=c3\[nH]c(=O)n(Cc4cnn[nH]4)c(=O)n3Cc3ccc(C(C)(C)C)cc3)c(Cl)cc2n1` .
A. 6.00 to 6.30

Q. Specify pIC50 for `Cn1cc2cc(/N=c3\[nH]c(=O)n(Cc4cnn[nH]4)c(=O)n3Cc3ccc([N+](=O)[O-])cc3)c(Cl)cc2n1` and stop.
A. 6.30 to 6.70

Q. Please indicate pIC50 recorded for `Cn1cc2cc(/N=c3\[nH]c(=O)n(Cc4cnn[nH]4)c(=O)n3Cc3ccc(F)cc3)c(Cl)cc2n1`
A. 6.30 to 6.70

###

molecular target: UniProt:P0DTD1; test: biochemical; conditions: 3CL^pro FRET
pIC50: −log10 of the molar value.
// pIC50 lookup, one value per entry

Please review the following examples before continuing.
> print(dat)
                              smiles.record   value
1  Cn1cc2cc(/N=c3\[nH]c(=O)n(Cc4cnn[nH]4)c(=O)n3Cc3cc(F)cc(F)c3)c(Cl)cc2n1  > 6.70
2  CC(C)n1nncc1Cn1c(=O)[nH]/c(=N\c2cc3cn(C)nc3cc2Cl)n(Cc2cc(F)c(F)cc2F)c1=O  > 6.70
3  Cn1cc2cc(/N=c3\[nH]c(=O)n(Cc4cnn[nH]4)c(=O)n3Cc3ccc(OC(F)(F)F)cc3)c(Cl)cc2n1  > 7.00

Q. Fill in pIC50 for record `Cn1cc2cc(/N=c3\[nH]c(=O)n(Cc4cnn[nH]4)c(=O)n3Cc3cc(F)c(F)cc3F)c(Cl)cc2n1`
A. 7.03

Q. Report pIC50, nothing else, for this molecule: `CC(C)Cn1nncc1Cn1c(=O)[nH]/c(=N\c2cc3cn(C)nc3cc2Cl)n(Cc2cc(F)c(F)cc2F)c1=O`
A. > 6.70

Q. Respond only with pIC50 recorded for `Cn1cc2cc(/N=c3\[nH]c(=O)n(Cc4cnnn4C)c(=O)n3Cc3cc(F)c(F)cc3F)c(Cl)cc2n1`
A. > 6.70

Q. Give the reported pIC50 for this molecule. `Cn1cc2cc(/N=c3\[nH]c(=O)n(Cc4cnn[nH]4)c(=O)n3Cc3ccc(C(F)(F)F)cc3)c(Cl)cc2n1`
A. 6.75

###

# pIC50 listing for each entry below
molecular target: UniProtKB P0DTD1; assay: biochemical; details: 3CL^pro FRET, class symbols
pIC50: −log10 of the molar value.

Q. Given Cn1cc2cc(/N=c3\[nH]c(=O)n(Cc4cnnn4C4CCC4)c(=O)n3Cc3cc(F)c(F)cc3F)c(Cl)cc2n1 [Compound 24] , respond with its pIC50.
A. 6.30 to 6.70

Q. State its pIC50 for this molecule: Cn1cc2cc(/N=c3\[nH]c(=O)n(Cc4cnn[nH]4)c(=O)n3Cc3ccc(Cl)cc3)c(Cl)cc2n1 [Compound 9]
A. 6.30 to 6.70

Q. Query pIC50 for COc1ccc(Cn2c(=O)n(Cc3cnn[nH]3)c(=O)[nH]/c2=N\c2cc3cn(C)nc3cc2Cl)cc1 [Compound 6]
A. < 6.00

Q. Identify the reported pIC50 for the following entry. Cn1cc2cc(/N=c3\[nH]c(=O)n(Cc4cnnn4C4CC4)c(=O)n3Cc3cc(F)c(F)cc3F)c(Cl)cc2n1 [Compound 21]
A. 6.30 to 6.70

Q. Identify measured pIC50 associated with COc1cc(Cn2c(=O)n(Cc3cnn[nH]3)c(=O)[nH]/c2=N\c2cc3cn(C)nc3cc2Cl)cc(OC)c1 [Compound 14]
A. 6.00 to 6.30

Q. Please list pIC50 recorded for the molecule Cn1cc2cc(/N=c3\[nH]c(=O)n(Cc4cnn[nH]4)c(=O)n3Cc3ccccc3)c(Cl)cc2n1 [Compound 2]
A. 6.00 to 6.30
